B1: KRT34 (parent)
chain: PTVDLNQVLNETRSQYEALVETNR

Variants of: B1
experiment.description: protein stability index of a GFP-peptide fusion (GPS, HEK-293T) (PSI 1-6); higher = more stable;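 further: lentivirally expressed fusions sorted by FACS into six bins by GFP to DsRed ratio, PSI derived from sequencing read proportions per bin multiplied by bin number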
test.parameters: c terminus: a fixed tail appended
property.measured: protein stability index

>>> endpoint_value("A18I")
3.7
>>> endpoint_value("R24W")
3.55
>>> endpoint_value("L19Y")
4.39
>>> endpoint_value("V3S")
4.28
>>> endpoint_value("Q15R")
4.16
>>> endpoint_value("Q15W")
1.94
>>> endpoint_value("Q7C")
3.95
>>> endpoint_value("Y16D")
5.26
>>> endpoint_value("E21K")
4.3
>>> endpoint_value("Y16K")
4.57
>>> endpoint_value("E17K")
4.12
>>> endpoint_value("A18N")
3.3
>>> endpoint_value("R24M")
2.51
>>> endpoint_value("P1K")
3.83
>>> endpoint_value("R24I")
3.11
>>> endpoint_value("Q15Y")
2.91
>>> endpoint_value("A18V")
4.01
>>> endpoint_value("V3N")
4.46
>>> endpoint_value("Q15P")
4.34
>>> endpoint_value("V8D")
4.64
>>> endpoint_value("D4V")
4.02
>>> endpoint_value("Q7P")
4.79
>>> endpoint_value("L9E")
4.52
>>> endpoint_value("L9N")
4.76
>>> endpoint_value("L5Q")
4.38
>>> endpoint_value("Y16R")
5.42
>>> endpoint_value("S14L")
2.12
>>> endpoint_value("P1D")
4.12
>>> endpoint_value("Q7G")
4.25
>>> endpoint_value("T2V")
2.52
>>> endpoint_value("L9G")
4.64
>>> endpoint_value("E21L")
3.56
>>> endpoint_value("L9R")
4.36
>>> endpoint_value("V3E")
4.03
>>> endpoint_value("S14F")
3.3

Data provenance is the supplement of paper PMC10567573.
